Data origin: ChEMBL document CHEMBL5154918

test: Volume of distribution at steady state in Sprague-Dawley rat at 0.25 mg/kg, iv bolus injection administered as cassette dose; format: ADME, organism-based; settings: in vivo, read-out: Vdss
Kindly supply the reported Vd values for the records listed here.
Answers are plain numbers, in L/kg.

Worked cases, Vd given:
smiles_str	Vd / L/kg
CCOc1ccc(F)cc1NC(=O)c1cc(C)ccc1NS(=O)(=O)C1CC1	1.2
CCOc1ccc(F)cc1NC(=O)c1ccccc1NS(=O)(=O)C1CC1	0.52

Next, consider the following molecule.
## Task Answer with the recorded Vd for the molecule listed here: CCOc1ccc(F)cc1NC(=O)c1cc(F)ccc1NS(=O)(=O)C1CC1
## Result 0.34

----------
assay: Microsomal stability in mouse liver microsomes assessed as intrinsic clearance; assay type: ADME, Microsome; conditions: read-out: CLH
Please respond with reported CLint scaled for every item in the list.
One number for each entry, in mL/min/kg.

smiles_str	unit_abbreviation	CLint scaled
CCOc1ccccc1NC(=O)c1ccccc1NS(=O)(=O)C1CC1	mL/min/kg	1060
CCOc1ccccc1NC(=O)c1cc(F)ccc1NS(=O)(=O)C1CC1	mL/min/kg	383
CCOc1ccc(F)cc1NC(=O)c1cc(C)ccc1NS(=O)(=O)CC	mL/min/kg	1000
Cc1cc2cccc(NC(=O)c3ccccc3NS(=O)(=O)C3CC3)c2o1	mL/min/kg	1460
CCOc1ccccc1NC(=O)c1cc(C)ccc1NS(=O)(=O)C1CC1	mL/min/kg	410
CCOc1ccc(F)cc1NC(=O)c1cc(C)ccc1NS(=O)(=O)C1CC1	mL/min/kg	1100
CCS(=O)(=O)Nc1ccccc1C(=O)Nc1ccc(F)cc1OCC(F)(F)F	mL/min/kg	1210
CCOc1ccc(F)cc1NC(=O)c1cc(F)ccc1NS(=O)(=O)C1CC1	mL/min/kg	980

Could I get CLint scaled for every one of these entries?
1. CCOc1ccc(F)cc1NC(=O)c1ccccc1NS(=O)(=O)C1CC1
2. CCOc1ccccc1NC(=O)c1cc(F)ccc1NS(=O)(=O)CC
3. CCCOc1ccccc1NC(=O)c1ccccc1NS(=O)(=O)C1CC1
4. CCOc1ccccc1NC(=O)c1cc(Cl)ccc1NS(=O)(=O)C1CC1
5. CCOc1ccc(F)cc1NC(=O)c1cc(F)ccc1NS(=O)(=O)CC
6. O=C(Nc1ccccc1OCC(F)(F)F)c1ccccc1NS(=O)(=O)C1CC1

## Result
1: 1660; 2: 269; 3: 4890; 4: 1470; 5: 1240; 6: 979

----------
test: Clearance in Sprague-Dawley rat at 0.25 mg/kg, iv bolus injection administered as cassette dose; format: ADME, organism-based; settings: in vivo
measurement_kind: clearance (mL/min/kg)
One number for each entry, in mL/min/kg.

Completed entries (count: 2):
smiles_str	unit_abbreviation	clearance
CCOc1ccc(F)cc1NC(=O)c1cc(F)ccc1NS(=O)(=O)C1CC1	mL/min/kg	14.1
CCOc1ccc(F)cc1NC(=O)c1cc(C)ccc1NS(=O)(=O)C1CC1	mL/min/kg	63.1

## Task Supply recorded clearance for CCOc1ccc(F)cc1NC(=O)c1ccccc1NS(=O)(=O)C1CC1 here.
## Result 36.7

----------
So I've got a bunch of molecules here, and I need their CLint scaled values.
experiment: Microsomal stability in human liver microsomes assessed as intrinsic clearance; assay type: ADME, Microsome; details: read-out: CLH
Write the quantity with the unit trailing the number.

Batch of 4 molecules: report CLint scaled for each.
1. CCOc1ccc(F)cc1NC(=O)c1cc(F)ccc1NS(=O)(=O)CC
2. CCOc1ccc(F)cc1NC(=O)c1cc(Cl)ccc1NS(=O)(=O)C1CC1
3. CCOc1ccc(F)cc1NC(=O)c1ccccc1NS(=O)(=O)C1CC1
4. CCOc1ccccc1NC(=O)c1ccccc1NS(=O)(=O)C1CC1

## Result
1. 69.1 mL/min/kg
2. 138 mL/min/kg
3. 79.1 mL/min/kg
4. 61.9 mL/min/kg

## Task Identify measured CLint scaled corresponding to CCCOc1ccccc1NC(=O)c1ccccc1NS(=O)(=O)C1CC1
## Result 116 mL/min/kg

----------
test: Plasma protein binding in human assessed as unbound fraction; assay type: ADME, cell-free; conditions: read-out: PPB
measurement_kind: fraction unbound
Numbers only.

These recorded examples may help you get a feel for the data.
smiles_str	fraction unbound
CCS(=O)(=O)Nc1ccccc1C(=O)Nc1ccc(F)cc1OCC(F)(F)F	0.005
CCOc1ccccc1NC(=O)c1ccccc1NS(=O)(=O)C1CC1	0.004

--- query ---
## Task Name the recorded fraction unbound of the item CCOc1ccccc1NC(=O)c1cc(F)ccc1NS(=O)(=O)C1CC1 in your answer.
## Result 0.004

----------
molecular target: Mas-related G-protein coupled receptor member X1 (Homo sapiens); assay: Positive allosteric modulator activity at human MRGPRX1 expressed in HEK293 cells assessed as maximal efficacy at 5 uM in presence of BAM8-22 by Fluo4-dye based FLIPR assay relative to control; type: cell-based
measurement_kind: Emax (%)
Numbers only, in %.

Example entries begin here.
smiles_str	unit_abbreviation	Emax
CCOc1ccccc1NC(=O)c1ccc(C)cc1NS(=O)(=O)C1CC1	%	3.2
CCOc1ccccc1NC(=O)c1cccc(NS(=O)(=O)C2CC2)c1	%	-44.4
CCOc1ccccc1-c1nnc(-c2ccccc2NS(=O)(=O)C2CC2)o1	%	6.7

Here's the next entry for you.
## Task State Emax (Mas-related G-protein coupled receptor member X1 (Homo sapiens)) of CCOc1ccccc1NC(=O)c1ccc2ccccc2c1NS(=O)(=O)C1CC1 .
## Result 8.9

----------
target: Mas-related G-protein coupled receptor member X1 (Homo sapiens, UniProt Q96LB2); assay: Positive allosteric modulator activity at human MRGPRX1 expressed in HEK293 cells in presence of BAM8-22 by Fluo4-dye based FLIPR assay
Sequence (Q96LB2 whole entry): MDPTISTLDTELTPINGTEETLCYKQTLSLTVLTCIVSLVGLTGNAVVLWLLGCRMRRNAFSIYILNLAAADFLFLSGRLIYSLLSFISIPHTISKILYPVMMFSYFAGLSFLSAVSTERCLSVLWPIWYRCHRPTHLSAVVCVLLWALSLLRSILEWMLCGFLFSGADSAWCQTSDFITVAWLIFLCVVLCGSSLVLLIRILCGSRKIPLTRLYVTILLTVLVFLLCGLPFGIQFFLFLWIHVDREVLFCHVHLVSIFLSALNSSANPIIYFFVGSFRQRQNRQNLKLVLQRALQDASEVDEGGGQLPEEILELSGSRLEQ
measurement_kind: EC50 (nM)
Numbers only, in nM.

// below: answered compounds
smiles_str	EC50, nM
CCOc1ccccc1NC(=O)c1cc(Cl)ccc1NS(=O)(=O)CC	407
CCOc1ccc(F)cc1NC(=O)c1cc(C)ccc1NS(=O)(=O)CC	80

## Task Give EC50 only, for CCOc1ccccc1NC(=O)c1cc(C)ccc1NS(=O)(=O)CC , using Mas-related G-protein coupled receptor member X1 (Homo sapiens, UniProt Q96LB2) data.
## Result 217

----------
target: Mas-related G-protein coupled receptor member X1 (Homo sapiens, UniProt Q96LB2); experiment: Positive allosteric modulator activity at human MRGPRX1 expressed in HEK293 cells assessed as maximal efficacy at 5 uM in presence of BAM8-22 by Fluo4-dye based FLIPR assay relative to control; assay type: cell-based; details: filed as positive allosteric modulator
measurement_kind: Emax (%)
Numbers only, in %.

smiles_str	target_or_test_system	reported_result
CCS(=O)(=O)Nc1ccc(F)cc1C(=O)Nc1ccccc1OCC(F)(F)F	Mas-related G-protein coupled receptor member X1 (Homo sapiens, UniProt Q96LB2)	100
CCS(=O)(=O)Nc1ccccc1C(=O)Nc1ccc(F)cc1OCC(F)(F)F	Mas-related G-protein coupled receptor member X1 (Homo sapiens, UniProt Q96LB2)	91.4

## Task Fill in reported Emax for this entry: CCOc1ccccc1NC(=O)c1ccccc1NS(=O)(=O)C1CC1
## Result 100

----------
biological target: Mas-related G-protein coupled receptor member X1 (Homo sapiens, UniProt Q96LB2); assay: Positive allosteric modulator activity at human MRGPRX1 expressed in HEK293 cells assessed as maximal efficacy at 5 uM in presence of BAM8-22 by Fluo4-dye based FLIPR assay relative to control; format: cell-based
Rule: 1.0 for Emax not less than 10%, 0.0 for anything less.

## Task Could you please find out whether CC1(C)Oc2cccc(NC(=O)c3ccccc3NS(=O)(=O)C3CC3)c2O1 has Emax that meets 10% or exceeds it?
## Result 0.0

## Task Textbook exercise: given the entry CCOc1cccnc1NC(=O)c1ccccc1NS(=O)(=O)C1CC1 , state whether its Emax is greater than or equal to 10%.
## Result 0.0

## Task Does the compound O=C(Nc1ccc2c(c1)OCCO2)c1ccccc1NS(=O)(=O)C1CC1 have recorded Emax that is 10% or more?
## Result 0.0

## Task Can O=C(Nc1cccc2c1OCCO2)c1ccccc1NS(=O)(=O)C1CC1 be said to have Emax at or above 10%?
## Result 1.0

## Task Quick check, Emax >= 10%? CCOc1cccc2nc(-c3ccccc3NS(=O)(=O)C3CC3)[nH]c12
## Result 1.0

## Task Has COc1ccccc1N(C)C(=O)c1ccccc1NS(=O)(=O)C1CC1 a recorded Emax greater than or equal to 10%?
## Result 0.0

## Task In plain terms: is recorded Emax at least 10% for CCOc1ccccc1Nc1nn(S(=O)(=O)C2CC2)c2cccnc12 ?
## Result 0.0

## Task Determine whether measured Emax meets or exceeds 10% for CCOc1ccccc1NC(=O)c1ccncc1NS(=O)(=O)C1CC1
## Result 1.0

## Task Please indicate if the recorded Emax for O=C(Nc1ccccc1OCC(F)(F)F)c1ccc(F)cc1NS(=O)(=O)C1CC1 meets or exceeds 10%.
## Result 1.0
